B1: NP_002788.1 (parent)
chain: DGWIRVSSDNVADLHEKYSGSTP

# Variants of: B1
# assay.procedure: protein stability index of a GFP-peptide fusion (GPS, HEK-293T) (PSI 1-6); higher = more stable;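 also: lentivirally expressed fusion library, cells FACS-sorted into six equal-sized GFP/DsRed ratio bins, PSI computed from sequencing read fractions per bin weighted by bin number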
# test.parameters: c terminus: native
We use 3 as the dividing line for protein stability index: on or above the line is 1.0, below is 0.0.

>>> print(df.to_string())
   variant_designation  assigned_category
0                 Y18G                1.0
1                 H15W                0.0
2                 G20R                1.0
3                 L14D                0.0
4                 H15M                0.0
5                  S8M                0.0
6                  D9C                0.0
7                  W3D                1.0

Please check the record P23C and state if its protein stability index is at or above 3.
1.0

Please check the record S7K and state if its protein stability index is at or above 3.
1.0

Please check the record G2Q and state if its protein stability index is at or above 3.
0.0
